test_system: T1, ZFP SBS#1108 (synthetic)
T1 chain: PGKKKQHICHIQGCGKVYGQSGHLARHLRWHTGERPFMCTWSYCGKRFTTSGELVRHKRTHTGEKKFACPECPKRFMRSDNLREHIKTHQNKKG
test_summary: EMSA
condition_set: tags: MBP fusion
readout_name: pKd
# pKd = -log10(concentration in molar units)

Exercise: Record request: pKd value, item CAGGCTGGA (dsDNA) DNA 1: CAGGCTGGA DNA 2: TCCAGCCTG
Key: 11.15
